Biological target: SHP2-C SH2
Assay: SH2 binding enrichment of the phosphorylated peptide, bacterial display (enrichment ratio); higher = better substrate or ligand; peptides without Tyr show the background
endpoint-name: SH2 binding enrichment

| sequence-input | SH2 binding enrichment |
| --- | --- |
| TLSGIYQFNIA [FOXL2_Y81_I84N_YF] | 0.971 |
| ATHSRYRLNDY [CLDN14_Y233_G232R] | 0.563 |
| KSSDVYVSYDY [SORL1_Y136] | 0.768 |
| LSQDVYEEDSF [RET_Y900_R897Q_YF] | 0.687 |

a = AGIENYKSRFG [NKD2_Y256_T257K]
b = YRIGPYQPSVP [MATR3_Y784_N787S]
c = YLRTGYSVPYG [TGM1_Y370]
Ascending by SH2 binding enrichment, please. Output spec: labels arranged per the requested ranking.
a, b, c
(a: 0.487, b: 0.996, c: 1.64)

* * *

Target: FGFR3 (UniProt P22607)
Sequence (P22607 whole entry, looked up): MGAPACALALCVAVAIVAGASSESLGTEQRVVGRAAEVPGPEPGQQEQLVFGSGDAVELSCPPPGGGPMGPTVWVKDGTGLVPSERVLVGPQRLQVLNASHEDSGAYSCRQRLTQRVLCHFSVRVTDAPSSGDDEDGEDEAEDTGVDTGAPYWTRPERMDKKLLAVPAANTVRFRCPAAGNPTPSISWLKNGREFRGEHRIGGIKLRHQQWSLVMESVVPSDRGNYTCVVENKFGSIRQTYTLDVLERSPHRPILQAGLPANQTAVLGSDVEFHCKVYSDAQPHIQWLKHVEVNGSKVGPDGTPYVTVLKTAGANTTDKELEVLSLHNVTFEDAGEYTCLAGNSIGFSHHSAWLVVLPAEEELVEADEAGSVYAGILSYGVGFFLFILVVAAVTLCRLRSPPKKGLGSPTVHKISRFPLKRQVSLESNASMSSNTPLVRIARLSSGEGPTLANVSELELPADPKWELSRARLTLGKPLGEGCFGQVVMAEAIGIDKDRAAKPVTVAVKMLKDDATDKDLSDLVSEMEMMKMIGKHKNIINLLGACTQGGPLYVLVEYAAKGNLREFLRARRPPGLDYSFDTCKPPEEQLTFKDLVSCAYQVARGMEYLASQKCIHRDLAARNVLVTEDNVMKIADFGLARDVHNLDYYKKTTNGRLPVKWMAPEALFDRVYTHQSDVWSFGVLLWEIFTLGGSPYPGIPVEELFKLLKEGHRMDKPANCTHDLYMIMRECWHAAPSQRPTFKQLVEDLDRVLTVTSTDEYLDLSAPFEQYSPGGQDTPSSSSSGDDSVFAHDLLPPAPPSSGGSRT
Experiment: phosphorylation enrichment, bacterial display (enrichment ratio); higher = better substrate or ligand; peptides without Tyr show the background
endpoint-name: phosphorylation enrichment
# print the numeric value only

| sequence-input | phosphorylation enrichment |
| --- | --- |
| DFGSGYPNDPK [RNASEH2A_Y210_YF] | 0.579 |
| FLTQHHDAKPQ [ANG_Y38_Y38H] | 0.451 |
| GDPTEYYSTAI [IGSF22_Y501] | 1.74 |
| LPVHFYSHVEH [PYGM_Y204_G205S] | 1.29 |
| CENNRYGMGAS [PDHA1_Y227_T231A] | 0.476 |

Which measured phosphorylation enrichment value corresponds to LEEFQYIGELQ [MSH2_Y856_S860L] ?
1.08

Which measured phosphorylation enrichment value corresponds to MHLRQYKLLGG [GNAS_Y391_E392K] ?
0.535

Which measured phosphorylation enrichment value corresponds to KVGPGYLGSGG [RET_Y826] ?
0.392

* * *

Molecular target: EPHB1 (UniProt P54762)
Sequence (P54762 whole entry, looked up): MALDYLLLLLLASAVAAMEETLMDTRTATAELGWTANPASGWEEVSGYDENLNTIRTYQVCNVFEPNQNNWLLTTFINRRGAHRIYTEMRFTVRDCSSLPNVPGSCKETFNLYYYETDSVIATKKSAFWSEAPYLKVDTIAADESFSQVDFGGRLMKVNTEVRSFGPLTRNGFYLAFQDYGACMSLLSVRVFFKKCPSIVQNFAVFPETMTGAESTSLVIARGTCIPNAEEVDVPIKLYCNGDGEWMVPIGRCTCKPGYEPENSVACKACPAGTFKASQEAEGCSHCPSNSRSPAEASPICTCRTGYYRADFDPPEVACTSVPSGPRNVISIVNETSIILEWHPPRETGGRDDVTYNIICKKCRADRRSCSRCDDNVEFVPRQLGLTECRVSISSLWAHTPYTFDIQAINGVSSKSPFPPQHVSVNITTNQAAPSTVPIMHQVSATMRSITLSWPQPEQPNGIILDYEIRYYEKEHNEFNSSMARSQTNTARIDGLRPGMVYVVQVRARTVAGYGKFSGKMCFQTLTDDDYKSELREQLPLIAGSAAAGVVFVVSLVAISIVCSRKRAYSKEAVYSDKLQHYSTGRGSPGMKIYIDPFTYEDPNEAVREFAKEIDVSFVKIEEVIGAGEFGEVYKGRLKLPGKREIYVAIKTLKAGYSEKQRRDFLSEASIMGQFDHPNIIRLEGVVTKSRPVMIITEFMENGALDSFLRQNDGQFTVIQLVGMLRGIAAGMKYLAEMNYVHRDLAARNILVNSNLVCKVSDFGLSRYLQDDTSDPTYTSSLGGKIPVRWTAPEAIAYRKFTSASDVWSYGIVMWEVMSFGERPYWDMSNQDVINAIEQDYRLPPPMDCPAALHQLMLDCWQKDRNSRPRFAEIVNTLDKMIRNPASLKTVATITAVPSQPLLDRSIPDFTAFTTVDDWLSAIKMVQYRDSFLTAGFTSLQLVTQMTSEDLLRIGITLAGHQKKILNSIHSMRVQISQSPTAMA
Assay: phosphorylation enrichment, bacterial display (enrichment ratio); higher = better substrate or ligand; peptides without Tyr show the background
List of phosphorylation enrichment values.
# print the numeric value only

Example sequences with recorded phosphorylation enrichment:
| sequence-input | phosphorylation enrichment |
| --- | --- |
| TLLERYGMTKI [ACSF3_Y355_E359K] | 0.531 |
| WIPNQYPIISE [NOG_Y222_I220N] | 0.427 |
| PNQRRYVYYYS [PTEN_Y174_S170N] | 1.07 |
| GVLKEYGVKVL [CPS1_Y529] | 0.369 |
| GGGMIYPLDLF | 0.527 |
| VTRKEYFIFLE [CAMKV_Y95] | 0.696 |
| ERRLIYTSDPK [VPS13D_Y864] | 0.307 |
| LIDGFYRLTED [JAK2_Y373_A377E_YF] | 0.586 |
| TALFIYIRPKA [OR10C1_Y258] | 0.406 |
| MGRVNYGAFIN [GLB1_Y485_YF] | 0.399 |

Which measured phosphorylation enrichment value corresponds to EELLHYAIVTP [POC5_Y37] ?
3.27

Which measured phosphorylation enrichment value corresponds to PATFTYDEFKK [COL8A2_Y648_YF] ?
1.38

Which measured phosphorylation enrichment value corresponds to EKKDLYKAGEQ [CFH_Y1008_V1007L] ?
0.382

Which measured phosphorylation enrichment value corresponds to GDPTEYFSTAI [IGSF22_Y501_YF] ?
0.634

* * *

Target: Grb2 SH2 (UniProt P62993)
Assay: SH2 binding enrichment of the phosphorylated peptide, bacterial display (enrichment ratio); higher = better substrate or ligand; peptides without Tyr show the background
endpoint-name: SH2 binding enrichment

Example sequences with recorded SH2 binding enrichment:
| sequence-input | target-system | SH2 binding enrichment |
| --- | --- | --- |
| VFSSDYFSFVL [USP24_Y2138_YF] | Grb2 SH2 (UniProt P62993) | 0.885 |
| FFVVRYCWLRR [MPZ_Y181_YF] | Grb2 SH2 (UniProt P62993) | 0.604 |
| EQDRAYLEGTC [HLA-C_Y183_L180D] | Grb2 SH2 (UniProt P62993) | 0.939 |
| ATHSRYRLNDY [CLDN14_Y233_G232R] | Grb2 SH2 (UniProt P62993) | 0.744 |
| TLQRMYGCDVG [HLA-B_Y123_S121R] | Grb2 SH2 (UniProt P62993) | 0.851 |

a = SLFNGYVYSGV [NEIL3_Y71]
b = GDSVQYNRTTD [MLPH_Y454_P451S]
c = VMAALYGRLFE [BTD_Y536_T532M_YF]
# sort list by recorded SH2 binding enrichment, greatest to least Output spec: labels arranged per the requested ranking.
c, a, b

* * *

Target: SHP2-C SH2
Test: SH2 binding enrichment of the phosphorylated peptide, bacterial display (enrichment ratio); higher = better substrate or ligand; peptides without Tyr show the background
endpoint-name: SH2 binding enrichment

| sequence-input | SH2 binding enrichment |
| --- | --- |
| GLIPAYHRVIM [NMNAT1_Y64] | 0.856 |
| VLSIDYYFPPQ [AR_Y552_P549S] | 1.55 |
| WIPNQYPIISE [NOG_Y222_I220N] | 0.827 |
| ETEMLYGSARR [PRC1_Y464_P468R] | 0.871 |

A = FTFTSYFMHWV [IGHV1-46_Y51_YF]
B = EFHRLYEEFTR [PIK3R1_Y467_D464H_YF]
Given the listed items, does A or B have the lesser reported SH2 binding enrichment? Select an item and report its label.
B

P = NRKGKYFNVER [ANAPC4_Y469]
Q = FQCKHYACIRQ [TIMP3_Y182_S179C_YF]
R = YRVDCYKNFVA [FHL1_Y213_C209R]
S = IGNGYYFHVFS [MYBPC3_Y1136_R1138H]
# sort list by recorded SH2 binding enrichment, greatest to least Output spec: labels arranged per the requested ranking.
Q, S, R, P

* * *

Tested on: Fer (mouse)
Assay: phosphorylation enrichment, bacterial display (enrichment ratio); higher = better substrate or ligand; peptides without Tyr show the background
endpoint-name: phosphorylation enrichment
# print the numeric value only

Example sequences with recorded phosphorylation enrichment:
| sequence-input | phosphorylation enrichment |
| --- | --- |
| DAKTIYDFTDT [PDK1_Y136_A134T] | 1.61 |
| WANPEYTGGFK | 0.413 |

Please tell me: phosphorylation enrichment of PQGVRYTYTID [DCX_Y103_I104T] , system Fer (mouse)?
0.499

* * *

Biological target: SHP2-C SH2
Experiment: SH2 binding enrichment of the phosphorylated peptide, bacterial display (enrichment ratio); higher = better substrate or ligand; peptides without Tyr show the background
endpoint-name: SH2 binding enrichment

Example sequences with recorded SH2 binding enrichment:
| sequence-input | target-system | endpoint-name | recorded-measurement |
| --- | --- | --- | --- |
| QERPEYWDQET [HLA-A_Y83_G80R] | SHP2-C SH2 | SH2 binding enrichment | 0.827 |
| DHLASYLDKVR [KRT10_Y160_R156H] | SHP2-C SH2 | SH2 binding enrichment | 0.714 |
| LQKNIYSEELR [LMNA_Y211_F206L] | SHP2-C SH2 | SH2 binding enrichment | 0.7 |
| CTTIHYNFMWN [TP53_Y234_C238W_YF] | SHP2-C SH2 | SH2 binding enrichment | 0.802 |
| LDLSYYPTSSS [EMD_Y182] | SHP2-C SH2 | SH2 binding enrichment | 0.66 |

a = DDIPLYLKGGV [COX7A2_Y44_E40D]
b = ILGRFYETGSI [PAX2_Y73_YF]
# returns the entry with the larger SH2 binding enrichment; inputs a and b Select an item and report its label.
b
(b: 1.17, a: 0.663)

* * *

Biological target: Grb2 SH2 (UniProt P62993)
Experiment: SH2 binding enrichment of the phosphorylated peptide, bacterial display (enrichment ratio); higher = better substrate or ligand; peptides without Tyr show the background
endpoint-name: SH2 binding enrichment

| sequence-input | target-system | recorded-measurement |
| --- | --- | --- |
| LSALDYKIFYY [WDPCP_Y210] | Grb2 SH2 (UniProt P62993) | 1.03 |
| VTRKEYFIFLE [CAMKV_Y95] | Grb2 SH2 (UniProt P62993) | 1.55 |
| SAEKAYHEQLS [TUBA1A_Y282] | Grb2 SH2 (UniProt P62993) | 0.951 |
| RKRQFYLFKGK [RSPO4_Y112_C107R_YF] | Grb2 SH2 (UniProt P62993) | 0.295 |
| SKNFTYIWWLN [PSG4_Y271_YF] | Grb2 SH2 (UniProt P62993) | 0.646 |

P = LYEDRYLLGTS [ASS1_Y87]
Q = ELTTCYRKKCS [CCBE1_Y70_C75S]
Given the listed items, does P or Q have the lesser reported SH2 binding enrichment? Select an item and report its label.
P
(P: 0.82, Q: 1.25)
